Tested on: KAI3 (IL-2 2.5 ng/mL);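 further: normalised to DMSO-only wells as negative and benzethonium chloride as positive control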
Assay: percent inhibition of viability; higher = more inhibition
Settings: 72 h; 1000 nM
This section presents molecules with their documented percent inhibition of viability values.

>  <Molecule>
Cc1csc(-c2nnc(Nc3ccc(Oc4ncccc4-c4ccnc(N)n4)cc3)c3ccccc23)c1 [AMG-900] (max concentration tested 1000 nM)

>  <Units symbol>
%

>  <percent inhibition of viability>
43.4

$$$$
>  <Molecule>
Cn1c(CCCC(=O)O)nc2cc(N(CCCl)CCCl)ccc21 [Bendamustine] (max concentration tested 10000 nM)

>  <Units symbol>
%

>  <percent inhibition of viability>
-4.7

$$$$
>  <Molecule>
COC(=O)N[C@@H](C)CNc1nccc(-c2cn(C(C)C)nc2-c2cc(Cl)cc(NS(C)(=O)=O)c2F)n1 [Encorafenib] (max concentration tested 1000 nM)

>  <Units symbol>
%

>  <percent inhibition of viability>
35.6

$$$$
>  <Molecule>
Cn1c(=O)n(-c2ccc(C(C)(C)C#N)cc2)c2c3cc(-c4cnc5ccccc5c4)ccc3ncc21 [Dactolisib] (max concentration tested 1000 nM)

>  <Units symbol>
%

>  <percent inhibition of viability>
75.8

$$$$
>  <Molecule>
C=CCn1c(=O)c2cnc(Nc3ccc(N4CCN(C)CC4)cc3)nc2n1-c1cccc(C(C)(C)O)n1 [MK1775] (max concentration tested 10000 nM)

>  <Units symbol>
%

>  <percent inhibition of viability>
91.1

$$$$
>  <Molecule>
C[C@]12C=CC(=O)C=C1CC[C@@H]1[C@@H]2[C@@H](O)C[C@@]2(C)[C@H]1CC[C@]2(O)C(=O)CO [Prednisolone] (max concentration tested 10000 nM)

>  <Units symbol>
%

>  <percent inhibition of viability>
-7.77

$$$$
